Tested on: SKBR3 (PI3Kα-Wild Type) cell line
Test: HTRF phospho-AKT(S473) cell assay in SKBR3 cells
Type: cell-based, human
Conditions: Homo sapiens, SK-BR-3; HTRF phospho-AKT(S473), SKBR3 (PI3Kα-Wild Type) cells, 2 hours compound incubation, PDGF-BB stimulated
endpoint.label: IC50

The examples below pair each entry with its known result.
molecule: Cc1cc([C@@H](C)Nc2ccc(Cl)nc2C(=O)NS(C)(=O)=O)c2nc(N3CCC(c4ncnn4C(C)C)CC3)n(C)c(=O)c2c1 [Compound 719]
recorded.measurement: ≥ 5 µM
//
molecule: Cc1cc([C@@H](C)Nc2ccc(Cl)nc2C(=O)NS(C)(=O)=O)c2nc(N3CCC(c4ncc(C(F)F)cn4)CC3)n(C)c(=O)c2c1 [Compound 504]
recorded.measurement: 1 to 5 µM

Need IC50 of Cc1cc([C@@H](C)Nc2ccc(Cl)nc2C(=O)NS(C)(=O)=O)c2nc(N3C[C@@H]4[C@H](C3)[C@H]4n3cnc(C)n3)n(C)c(=O)c2c1 [Compound 566] , thanks.
1 to 5 µM

---

Tested on: T47D (PI3Kα-H1047R) cell line
Test: HTRF phospho-AKT(S473) cell assay in T47D cells
Type: cell-based, human
Settings: Homo sapiens; HTRF phospho-AKT(S473), T47D (PI3Kα-H1047R) cells, 2 hours compound incubation
Below: a set of entries, each annotated with reported IC50.

Find the measured IC50: item COc1cc([C@H]2[C@@H]3CN(c4nc5c([C@@H](C)Nc6ccc(Cl)nc6C(=O)NS(C)(=O)=O)cc(C)cc5c(=O)n4C)C[C@@H]32)ccn1 , target or system T47D (PI3Kα-H1047R) cell line.
250 to 500 nM

Find the measured IC50: item Cc1cc([C@@H](C)Nc2ccc(Cl)nc2C(=O)NS(C)(=O)=O)c2nc(-c3ccc4nn(C5CC5)cc4c3)n(C)c(=O)c2c1 , target or system T47D (PI3Kα-H1047R) cell line.
250 to 500 nM

Find the measured IC50: item Cc1cc([C@@H](C)Nc2ccc(Cl)nc2C(=O)NS(C)(=O)=O)c2nc(N3CC[C@H](Oc4ccc(F)cn4)C3)n(C)c(=O)c2c1 , target or system T47D (PI3Kα-H1047R) cell line.
250 to 500 nM

---

Tested on: SKBR3 (PI3Kα-Wild Type) cell line
Assay: HTRF phospho-AKT(S473) cell assay in SKBR3 cells
Assay type: cell-based, human
Details: Homo sapiens, SK-BR-3; HTRF phospho-AKT(S473), SKBR3 (PI3Kα-Wild Type) cells, 2 hours compound incubation, PDGF-BB stimulated
endpoint.label: IC50

compound: Cc1cc([C@@H](C)Nc2ccc(Cl)nc2C(=O)NS(C)(=O)=O)c2nc(N3Cc4cn(-c5ncc(C#N)cc5C)nc4C3)n(C)c(=O)c2c1
IC50: 1 to 5 µM
--
compound: Cc1cc([C@@H](C)Nc2ccc(Cl)nc2C(=O)NS(C)(=O)=O)c2nc(-c3ccc(OCCN4CCOCC4)cc3)n(C)c(=O)c2c1
IC50: ≥ 5 µM
--
compound: Cc1cc([C@@H](C)Nc2ccc(Cl)nc2C(=O)NS(C)(=O)=O)c2nc(N3CCC[C@@H](c4ccn(C(F)F)n4)C3)n(C)c(=O)c2c1 (relative stereo)
IC50: ≥ 5 µM

Next up:
Find the measured IC50: item Cc1cc([C@@H](C)Nc2ccc(Cl)nc2C(=O)NS(C)(=O)=O)c2nc(N3CCc4nn(C(F)F)cc4C3)n(C)c(=O)c2c1 , target or system SKBR3 (PI3Kα-Wild Type) cell line.
1 to 5 µM

---

Test system: T47D (PI3Kα-H1047R) cell line
Experiment: HTRF phospho-AKT(S473) cell assay in T47D cells
Format: cell-based, human
Details: Homo sapiens; HTRF phospho-AKT(S473), T47D (PI3Kα-H1047R) cells, 2 hours compound incubation
pIC50: −log10 of the molar value.
endpoint.label: pIC50

The examples below pair each entry with its known result.
compound: Cc1ccn([C@H]2[C@@H]3CN(c4nc5c([C@@H](C)Nc6ccc(Cl)nc6C(=O)NS(C)(=O)=O)cc(C)cc5c(=O)n4C)C[C@@H]32)c(=O)c1
pIC50: > 6.60
--
compound: Cc1cc([C@@H](C)Nc2ccc(Cl)nc2C(=O)NS(C)(=O)=O)c2nc([C@H]3[C@@H]4CN(c5cnc(C)cn5)C[C@@H]43)n(C)c(=O)c2c1
pIC50: 6.30 to 6.60
--
compound: Cc1cc([C@@H](C)Nc2ccc(Cl)nc2C(=O)NS(C)(=O)=O)c2nc(N3C[C@@H]4C[C@H]3C[C@H]4c3nn(C)cc3F)n(C)c(=O)c2c1 (relative stereo)
pIC50: 6.30 to 6.60
--
compound: Cc1cc([C@@H](C)Nc2ccc(Cl)nc2C(=O)NS(C)(=O)=O)c2nc(N3Cc4cn(CC5CC5)nc4C3)n(C)c(=O)c2c1
pIC50: 6.30 to 6.60

Find the measured pIC50: item Cc1cc([C@@H](C)Nc2ccc(Cl)nc2C(=O)NS(C)(=O)=O)c2nc(N3[C@@H]4CC[C@H]3C[C@@H](n3cc(C)cn3)C4)n(C)c(=O)c2c1 , target or system T47D (PI3Kα-H1047R) cell line.
> 6.60

Find the measured pIC50: item Cc1cc([C@@H](C)Nc2ccc(Cl)nc2C(=O)NS(C)(=O)=O)c2nc(N3CCC(c4ccn(C5COC5)n4)CC3)n(C)c(=O)c2c1 , target or system T47D (PI3Kα-H1047R) cell line.
> 6.60

Find the measured pIC50: item COc1nn(C)cc1[C@H]1[C@@H]2CN(c3nc4c([C@@H](C)Nc5ccc(Cl)nc5C(=O)NS(C)(=O)=O)cc(C)cc4c(=O)n3C)C[C@@H]21 , target or system T47D (PI3Kα-H1047R) cell line.
> 6.60

---

Test system: SKBR3 (PI3Kα-Wild Type) cell line
Assay: HTRF phospho-AKT(S473) cell assay in SKBR3 cells
Format: cell-based, human
Settings: Homo sapiens, SK-BR-3; HTRF phospho-AKT(S473), SKBR3 (PI3Kα-Wild Type) cells, 2 hours compound incubation, PDGF-BB stimulated
Below: a set of entries, each annotated with reported IC50.

cpd.smiles: Cc1cc([C@@H](C)Nc2ccc(Cl)nc2C(=O)NS(C)(=O)=O)c2nc(-c3ccc4nn(C)cc4c3)n(C)c(=O)c2c1
IC50: 1 to 5 µM

cpd.smiles: Cc1cc([C@@H](C)Nc2ccc(Cl)nc2C(=O)NS(C)(=O)=O)c2nc(N3CCC(c4nc(C)no4)CC3)n(C)c(=O)c2c1
IC50: 1 to 5 µM

cpd.smiles: Cc1cc([C@@H](C)Nc2ccc(Cl)nc2C(=O)NS(C)(=O)=O)c2nc(N3C[C@@H]4[C@H](C3)[C@H]4c3ccnc(C)c3F)n(C)c(=O)c2c1
IC50: 1 to 5 µM

Need IC50 of Cc1cc([C@@H](C)Nc2ccc(Cl)nc2C(=O)NS(C)(=O)=O)c2nc(N3C[C@@H]4[C@H](C3)[C@H]4c3cnc(C)o3)n(C)c(=O)c2c1 , thanks.
1 to 5 µM

Need IC50 of COc1ccccc1-n1cc2c(n1)CN(c1nc3c([C@@H](C)Nc4ccc(Cl)nc4C(=O)NS(C)(=O)=O)cc(C)cc3c(=O)n1C)C2 , thanks.
≥ 5 µM

Need IC50 of Cc1cc([C@@H](C)Nc2ccc(Cl)nc2C(=O)NS(C)(=O)=O)c2nc(N3C[C@H]4C[C@@H]3CN4c3ccc(F)cn3)n(C)c(=O)c2c1 , thanks.
≥ 5 µM

---

Experiment: Mouse PK, IV and PO
Conditions: in vivo, IV dose 3 mg/kg, read-out: PK-Mouse: IV-AUCinf
endpoint.label: AUC(0-inf) (ng·h/mL)

[A] Cc1cc([C@@H](C)Nc2ccc(Cl)nc2C(=O)O)c2nc(N3Cc4ccc(F)cc4C3)n(C)c(=O)c2c1 [Compound 1 acid derivative, reference compound]
[B] Cc1cc([C@@H](C)Nc2ccc(Cl)nc2C(=O)NS(C)(=O)=O)c2nc(N3Cc4ccc(F)cc4C3)n(C)c(=O)c2c1
// pick min by AUC(0-inf): A , B Use the label to indicate which entry you chose.
A
(A: 2070 ng·h/mL, B: 67500 ng·h/mL)

---

Below: a set of entries, each annotated with reported IC50.
Test system: SKBR3 (PI3Kα-Wild Type) cell line
Test: HTRF phospho-AKT(S473) cell assay in SKBR3 cells
Type: cell-based, human
Conditions: Homo sapiens, SK-BR-3; HTRF phospho-AKT(S473), SKBR3 (PI3Kα-Wild Type) cells, 2 hours compound incubation, PDGF-BB stimulated

The examples below pair each entry with its known result.
molecule: Cc1cc([C@@H](C)Nc2ccc(Cl)nc2C(=O)NS(C)(=O)=O)c2nc(N3CC[C@@H](c4cnc(C)nc4)C3)n(C)c(=O)c2c1 (relative stereo)
target.of.assay: SKBR3 (PI3Kα-Wild Type) cell line
IC50: ≥ 5 µM
//
molecule: COc1nc(C)cc(N2CCN(c3nc4c([C@@H](C)Nc5ccc(Cl)nc5C(=O)NS(C)(=O)=O)cc(C)cc4c(=O)n3C)CC2)n1
target.of.assay: SKBR3 (PI3Kα-Wild Type) cell line
IC50: 1 to 5 µM
//
molecule: Cc1cc([C@@H](C)Nc2ccc(Cl)nc2C(=O)NS(C)(=O)=O)c2nc(N3Cc4cn(CC5CC5)nc4C3)n(C)c(=O)c2c1
target.of.assay: SKBR3 (PI3Kα-Wild Type) cell line
IC50: 1 to 5 µM

Find the measured IC50: item [2H]C([2H])([2H])n1nc([C@H]2[C@@H]3CN(c4nc5c([C@@H](C)Nc6ccc(Cl)nc6C(=O)NS(C)(=O)=O)cc(C)cc5c(=O)n4C)C[C@@H]32)c(Cl)c1C , target or system SKBR3 (PI3Kα-Wild Type) cell line.
≥ 5 µM
